Target: UniProt Q15858
Sequence (Q15858 whole entry): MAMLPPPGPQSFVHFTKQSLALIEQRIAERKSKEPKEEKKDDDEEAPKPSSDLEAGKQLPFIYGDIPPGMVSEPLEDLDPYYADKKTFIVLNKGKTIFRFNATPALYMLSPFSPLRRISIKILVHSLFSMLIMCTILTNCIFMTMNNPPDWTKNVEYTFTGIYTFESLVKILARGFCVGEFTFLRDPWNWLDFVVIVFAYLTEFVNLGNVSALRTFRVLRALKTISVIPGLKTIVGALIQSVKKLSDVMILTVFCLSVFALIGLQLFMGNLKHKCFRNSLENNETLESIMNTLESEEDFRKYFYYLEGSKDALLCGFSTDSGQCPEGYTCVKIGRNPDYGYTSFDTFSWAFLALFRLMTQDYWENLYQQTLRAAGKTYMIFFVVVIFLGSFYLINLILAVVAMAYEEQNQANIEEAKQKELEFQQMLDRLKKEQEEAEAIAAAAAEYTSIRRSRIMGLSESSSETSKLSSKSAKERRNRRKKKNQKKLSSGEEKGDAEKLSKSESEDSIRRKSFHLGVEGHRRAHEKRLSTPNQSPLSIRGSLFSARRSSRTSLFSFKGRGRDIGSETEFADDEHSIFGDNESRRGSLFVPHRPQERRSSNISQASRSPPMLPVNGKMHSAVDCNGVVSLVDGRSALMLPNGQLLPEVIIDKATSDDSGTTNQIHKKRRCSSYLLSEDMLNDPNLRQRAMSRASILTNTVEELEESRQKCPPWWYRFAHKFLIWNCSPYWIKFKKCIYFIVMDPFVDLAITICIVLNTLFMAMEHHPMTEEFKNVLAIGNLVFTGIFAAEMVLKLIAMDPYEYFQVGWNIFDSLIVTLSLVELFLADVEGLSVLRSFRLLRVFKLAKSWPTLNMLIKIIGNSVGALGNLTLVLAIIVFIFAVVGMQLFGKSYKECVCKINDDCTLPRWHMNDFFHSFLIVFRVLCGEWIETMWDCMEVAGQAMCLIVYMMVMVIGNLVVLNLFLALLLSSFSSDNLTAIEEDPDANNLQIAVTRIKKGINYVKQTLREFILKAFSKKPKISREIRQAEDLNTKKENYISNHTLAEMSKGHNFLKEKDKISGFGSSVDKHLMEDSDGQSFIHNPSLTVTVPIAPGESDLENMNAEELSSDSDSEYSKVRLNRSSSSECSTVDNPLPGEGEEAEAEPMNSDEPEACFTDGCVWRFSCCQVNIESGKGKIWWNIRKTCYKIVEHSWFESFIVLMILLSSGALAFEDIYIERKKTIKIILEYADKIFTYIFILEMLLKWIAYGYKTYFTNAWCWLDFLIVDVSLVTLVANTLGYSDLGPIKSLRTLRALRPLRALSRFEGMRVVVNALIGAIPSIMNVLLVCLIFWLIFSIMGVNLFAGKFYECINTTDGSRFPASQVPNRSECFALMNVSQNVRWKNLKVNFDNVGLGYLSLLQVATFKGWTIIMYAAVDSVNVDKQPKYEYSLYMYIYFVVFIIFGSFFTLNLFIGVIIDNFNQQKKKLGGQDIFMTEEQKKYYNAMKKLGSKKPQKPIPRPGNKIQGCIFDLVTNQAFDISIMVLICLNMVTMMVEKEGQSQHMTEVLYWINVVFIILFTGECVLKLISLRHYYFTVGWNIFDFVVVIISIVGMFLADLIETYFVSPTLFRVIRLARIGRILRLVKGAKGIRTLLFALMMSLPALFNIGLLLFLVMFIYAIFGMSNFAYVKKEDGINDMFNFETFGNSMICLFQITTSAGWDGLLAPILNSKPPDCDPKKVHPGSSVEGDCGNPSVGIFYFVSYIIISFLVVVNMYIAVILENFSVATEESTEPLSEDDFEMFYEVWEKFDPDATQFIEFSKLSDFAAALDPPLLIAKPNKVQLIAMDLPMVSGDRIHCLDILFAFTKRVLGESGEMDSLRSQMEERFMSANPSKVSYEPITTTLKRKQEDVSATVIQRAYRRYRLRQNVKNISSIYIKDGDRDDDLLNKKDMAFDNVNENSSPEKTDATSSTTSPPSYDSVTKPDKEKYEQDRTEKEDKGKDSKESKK
outcome.measure: pIC50
// pIC50 here means minus log10 of the molar concentration (mol/L)

# get_value(readout= pIC50, system= UniProt Q15858) for O=C1N(Cc2ccc(C(F)(F)F)o2)c2ccccc2C12COc1cc3c(cc12)OCO3 (stereo not drawn) [(I)]
8.15

For O=C1N(Cc2ccc(C(F)(F)F)o2)c2ccccc2[C@@]12COc1cc3c(cc12)OCO3 [(I-R)] then?
5.38

Proceed to O=C1N(Cc2ccc(C(F)(F)F)o2)c2ccccc2[C@]12COc1cc3c(cc12)OCO3 [(I-S)]
8.52
